# Test system: LFG2:4B10 mAb
// reported Response R for each item listed

| Substance | Response R |
| --- | --- |
| TFKDEAGGGSK-biotin | 5.2909 |
| TFKDEIGGGSK-biotin | 4.8387 |
| TFKDAIGGGSK-biotin | 1.0132 |
| TFQDEIGGGSK-biotin | 1.3414 |
| THQDEIYEQK-biotin | 0.7024 |
| THKDEIGGGSK-biotin | 2.3704 |

----------
Quick record: pKd, LFG2:4B10 mAb.
pKd: −log10 of the molar value.
Measured Parameter: pKd

| Substance | Target System | Measured Parameter | Observed |
| --- | --- | --- | --- |
| TFKDAIGGGSK-biotin | LFG2:4B10 mAb | pKd | 7.61 |
| TFKDEAGGGSK-biotin | LFG2:4B10 mAb | pKd | 7.79 |
| TFQDEIGGGSK-biotin | LFG2:4B10 mAb | pKd | 7.46 |
| THQDEIYEQK-biotin | LFG2:4B10 mAb | pKd | 7.27 |
| THKDEIGGGSK-biotin | LFG2:4B10 mAb | pKd | 7.22 |
| TFKDEIGGGSK-biotin | LFG2:4B10 mAb | pKd | 8.00 |
